conditions: human, in vivo, 30 mg, β-Half-life, oxycodone alone, Day 1, plasma

SMILES_REPRESENTATION | UNIT_SPEC | half-life
COc1ccc2c3c1O[C@H]1C(=O)CC[C@@]4(O)[C@@H](C2)N(C)CC[C@]314 | h | 3.9

====

settings: human, in vivo, Cmax, oxycodone + ACZ, Day 5, plasma
MEASURE: Cmax (ng/mL)

COMPOUND | UNIT_SPEC | NUMERIC_READOUT
COc1ccc2c3c1O[C@H]1C(=O)CC[C@@]4(O)[C@@H](C2)N(C)CC[C@]314 [Oxycodone] | ng/mL | 71.4

====

settings: human, in vivo, β-Half-life, oxycodone + ACZ, Day 5, plasma

SMILES_REPRESENTATION | half-life [h]
COc1ccc2c3c1O[C@H]1C(=O)CC[C@@]4(O)[C@@H](C2)N(C)CC[C@]314 | 4.1

====

test: clinical; conditions: human, in vivo

MOLECULE | Tmax (h)
CC(=O)Nc1nnc(S(N)(=O)=O)s1 [ACZ, Acetazolamide] | 7.2

====

conditions: human, in vivo, α-Half-life, oxycodone + ACZ 15 mg, Day 5, plasma
MEASURE: half-life (min)

SMILES_REPRESENTATION | MEASURE | NUMERIC_READOUT
COc1ccc2c3c1O[C@H]1C(=O)CC[C@@]4(O)[C@@H](C2)N(C)CC[C@]314 | half-life | 12

====

assay: clinical; conditions: human, in vivo, Plasma Tmax

MOLECULE | UNIT_SPEC | Tmax
CC(=O)Nc1nnc(S(N)(=O)=O)s1 [ACZ, Acetazolamide] | h | 1

====

experiment: clinical; conditions: human, in vivo, Blood Cmax

COMPOUND | Cmax
CC(=O)Nc1nnc(S(N)(=O)=O)s1 [ACZ, Acetazolamide] | 776 ng/mL

====

details: human, in vivo, 30 mg, Cmax, oxycodone alone, Day 1, plasma

SMILES_REPRESENTATION | Cmax
COc1ccc2c3c1O[C@H]1C(=O)CC[C@@]4(O)[C@@H](C2)N(C)CC[C@]314 | 61.6 ng/mL

====

experiment: clinical; conditions: human, in vivo, RBCs (minus residuum) Cmax

COMPOUND | Cmax
CC(=O)Nc1nnc(S(N)(=O)=O)s1 [ACZ, Acetazolamide] | 636 ng/mL

====

experiment: clinical; settings: human, in vivo, RBCs (total) Cmax
MEASURE: Cmax (ng/mL)

COMPOUND | NUMERIC_READOUT
CC(=O)Nc1nnc(S(N)(=O)=O)s1 [ACZ, Acetazolamide] | 1790

====

settings: human, in vivo, 30 mg, Cmax, oxycodone alone, Day 8, plasma
MEASURE: Cmax (ng/mL)

SMILES_REPRESENTATION | UNIT_SPEC | NUMERIC_READOUT
COc1ccc2c3c1O[C@H]1C(=O)CC[C@@]4(O)[C@@H](C2)N(C)CC[C@]314 | ng/mL | 68.5

====

conditions: human, in vivo, 30 mg
MEASURE: Tmax (h)

SMILES_REPRESENTATION | MEASURE | NUMERIC_READOUT
COc1ccc2c3c1O[C@H]1C(=O)CC[C@@]4(O)[C@@H](C2)N(C)CC[C@]314 | Tmax | 1

The measurements presented in this section are drawn from paper PMC5360176.
